For Somatostatin receptor type 1 (Rattus norvegicus, UniProt P28646), measured Kd is reported for the entries below.
Write it as a number; the unit µM goes unstated.

Qu. Tell me the measured Kd of "COc1cccc2c1C[C@H]1C[C@@H](C(=O)N3CCN(c4ccc(C#N)cn4)CC3)CN(C)[C@@H]1C2" , please.
Ans. 0.00355

Qu. Tell me the measured Kd of "COc1cccc2c1C[C@H]1C[C@@H](C(=O)N3CCN(c4ccc(S(N)(=O)=O)cc4)CC3)CN(C)[C@@H]1C2" , please.
Ans. 0.589

Qu. Tell me the measured Kd of "COc1cccc2c1C[C@H]1C[C@@H](C(=O)N3CCN(c4ccncc4)CC3)CN(C)[C@@H]1C2" , please.
Ans. 1.86

Qu. Tell me the measured Kd of "COc1cccc2c1C[C@H]1C[C@@H](C(=O)N3CCN(c4ccc([N+](=O)[O-])cc4)CC3)CN(C)[C@@H]1C2" , please.
Ans. 0.000708

Qu. Tell me the measured Kd of "COc1cccc2c1C[C@H]1C[C@@H](C(=O)N3CCN(c4ccc(F)cc4)CC3)CN(C)[C@@H]1C2" , please.
Ans. 0.00339

Qu. Tell me the measured Kd of "COc1cccc2c1C[C@H]1C[C@@H](C(=O)N3CCN(c4ccc5ccccc5n4)CC3)CN(C)[C@@H]1C2" , please.
Ans. 0.0275

Qu. Tell me the measured Kd of "COc1cccc2c1C[C@H]1C[C@@H](C(=O)N3CCN(Cc4ccccc4)CC3)CN(C)[C@@H]1C2" , please.
Ans. 0.457

Qu. Tell me the measured Kd of "COc1cccc2c1C[C@H]1C[C@@H](C(=O)N3CCN(c4cc5ccccc5cn4)CC3)CN(C)[C@@H]1C2" , please.
Ans. 0.288

Qu. Tell me the measured Kd of "COc1cccc2c1C[C@H]1C[C@@H](C(=O)N3CCNCC3)CN(C)[C@@H]1C2" , please.
Ans. 10.5

Qu. Tell me the measured Kd of "COc1cccc2c1C[C@H]1C[C@@H](C(=O)N3CCN(c4ccc(C(F)(F)F)cn4)CC3)CN(C)[C@@H]1C2" , please.
Ans. 0.105

Qu. Tell me the measured Kd of "COc1cccc2c1C[C@H]1C[C@@H](C(=O)N3CCN(c4ccc(C(C)=O)cc4)CC3)CN(C)[C@@H]1C2" , please.
Ans. 0.151

----------
# measurementDescription: Oral bioavailability in rat at 10 mg/kg
# Assay type: ADME, organism-based
# conditionsUsed: in vivo
metricName: bioavailability (%)
Write it as a number; the unit % goes unstated.

Qu. Tell me the measured bioavailability of "COc1cccc2c1C[C@H]1C[C@@H](C(=O)N3CCN(c4ccc([N+](=O)[O-])cc4)CC3)CN(C)[C@@H]1C2" , please.
Ans. 35

----------
For Somatostatin receptor type 1 (Rattus norvegicus, UniProt P28646), measured Kd is reported for the entries below.
Write it as a number; the unit nM goes unstated.

COc1cccc2c1C[C@H]1C[C@@H](C(=O)N3CCN(c4ncccn4)CC3)CN(C)[C@@H]1C2: 468
COc1cccc2c1C[C@H]1C[C@@H](C(=O)N3CCN(c4ccc(C(=O)O)cc4)CC3)CN(C)[C@@H]1C2: 81300
COc1cccc2c1C[C@H]1C[C@@H](C(=O)N3CCN(c4ccc(F)c(F)c4)CC3)CN(C)[C@@H]1C2: 0.741

Qu. Tell me the measured Kd of "COc1cccc2c1C[C@H]1C[C@@H](C(=O)N3CCN(c4cccc(=O)n4C)CC3)CN(C)[C@@H]1C2" , please.
Ans. 1.82

Qu. Tell me the measured Kd of "COc1cccc2c1C[C@H]1C[C@@H](C(=O)N3CCN(c4cccc(F)c4)CC3)CN(C)[C@@H]1C2" , please.
Ans. 3.31

Qu. Tell me the measured Kd of "COc1cccc2c1C[C@H]1C[C@@H](C(=O)N3CCN(c4ccc(C(F)(F)F)cc4)CC3)CN(C)[C@@H]1C2" , please.
Ans. 275

Qu. Tell me the measured Kd of "COc1cccc2c1C[C@H]1C[C@@H](C(=O)N3CCN(c4ccc([N+](=O)[O-])cc4C#N)CC3)CN(C)[C@@H]1C2" , please.
Ans. 3.24

Qu. Tell me the measured Kd of "COc1cccc2c1C[C@H]1C[C@@H](C(=O)N3CCCN(c4ccc([N+](=O)[O-])cc4)CC3)CN(C)[C@@H]1C2" , please.
Ans. 263

Qu. Tell me the measured Kd of "COc1cccc2c1C[C@H]1C[C@@H](C(=O)N3CCN(c4ccc(C#N)cc4)CC3)CN(C)[C@@H]1C2" , please.
Ans. 8.13

Qu. Tell me the measured Kd of "COc1cccc2c1C[C@H]1C[C@@H](C(=O)N3CCCN(c4ccccn4)CC3)CN(C)[C@@H]1C2" , please.
Ans. 209

Qu. Tell me the measured Kd of "COc1cccc2c1C[C@H]1C[C@@H](C(=O)N3CCN(c4cc(C)nc5ccccc45)CC3)CN(C)[C@@H]1C2" , please.
Ans. 692

Qu. Tell me the measured Kd of "COc1cccc2c1C[C@H]1C[C@@H](C(=O)N3CCN(c4cccc5ccccc45)CC3)CN(C)[C@@H]1C2" , please.
Ans. 87.1

----------
# subjectOfTest: Somatostatin receptor type 2 (Rattus norvegicus)
# Sequence (P30680 whole entry): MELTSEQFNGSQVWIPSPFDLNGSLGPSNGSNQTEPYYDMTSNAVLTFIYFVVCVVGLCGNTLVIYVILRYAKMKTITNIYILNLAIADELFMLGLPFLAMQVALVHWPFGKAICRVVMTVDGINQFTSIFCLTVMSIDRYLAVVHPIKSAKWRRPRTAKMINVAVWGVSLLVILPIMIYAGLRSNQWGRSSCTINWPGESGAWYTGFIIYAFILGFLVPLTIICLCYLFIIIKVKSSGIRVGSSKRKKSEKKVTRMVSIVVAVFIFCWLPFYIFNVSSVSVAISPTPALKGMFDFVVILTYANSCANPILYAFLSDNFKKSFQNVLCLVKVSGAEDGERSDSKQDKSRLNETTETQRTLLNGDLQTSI
metricName: Kd (µM)
Write it as a number; the unit µM goes unstated.

# example entries with known answers
COc1cccc2c1C[C@H]1C[C@@H](C(=O)N3CC=C(c4ccccn4)CC3)CN(C)[C@@H]1C2: 2.34
CCN(CC)C(=O)c1ccc(N2CCN(C(=O)[C@@H]3C[C@@H]4Cc5c(cccc5OC)C[C@H]4N(C)C3)CC2)cc1: 20
COc1cccc2c1C[C@H]1C[C@@H](C(=O)N3CCN(c4ccc([N+](=O)[O-])cc4C#N)CC3)CN(C)[C@@H]1C2: 4.37
COc1cccc2c1C[C@H]1C[C@@H](C(=O)N3CCN(c4cc5nccnc5cn4)CC3)CN(C)[C@@H]1C2: 7.08
COc1cccc2c1C[C@H]1C[C@@H](C(=O)N3CC=C(c4ncccn4)CC3)CN(C)[C@@H]1C2: 2.4
COc1cccc2c1C[C@H]1C[C@@H](C(=O)N3CCN(c4ccc(C(=O)O)cc4)CC3)CN(C)[C@@H]1C2: 251

Turning now to a further compound:
Qu. Lab note: need Kd for "COC(=O)c1ccc(N2CCN(C(=O)[C@@H]3C[C@@H]4Cc5c(cccc5OC)C[C@H]4N(C)C3)CC2)cc1" on Somatostatin receptor type 2 (Rattus norvegicus), anyone have it?
Ans. 14.8

----------
For Somatostatin receptor type 2 (Rattus norvegicus, UniProt P30680), measured pKd is reported for the entries below.
Note on pKd: it is the negative log10 of concentration, concentration in mol/L.

# example entries with known answers
COc1cccc2c1C[C@H]1C[C@@H](C(=O)N3CCN(c4ccc(F)c(F)c4)CC3)CN(C)[C@@H]1C2: 4.78
COc1cccc2c1C[C@H]1C[C@@H](C(=O)N3CCN(c4cccc(F)c4)CC3)CN(C)[C@@H]1C2: 4.67
COc1cccc2c1C[C@H]1C[C@@H](C(=O)N3CCN(c4ccc(C(F)(F)F)cn4)CC3)CN(C)[C@@H]1C2: 4.70
COc1cccc2c1C[C@H]1C[C@@H](C(=O)N3CCN(c4cccc5ccccc45)CC3)CN(C)[C@@H]1C2: 5.26
COc1cccc2c1C[C@H]1C[C@@H](C(=O)N3CCN(c4ccc(O)cc4)CC3)CN(C)[C@@H]1C2: 4.61
COc1cccc2c1C[C@H]1C[C@@H](C(=O)N3CCNCC3)CN(C)[C@@H]1C2: 4.36

Qu. Tell me the measured pKd of O=[As][As+](=O)[O-] (centres undefined) [ARSENIC TRIOXIDE] , please.
Ans. 4.60

Qu. Tell me the measured pKd of "COc1cccc2c1C[C@H]1C[C@@H](C(=O)N3CCN(c4ccccn4)CC3)CN(C)[C@@H]1C2" , please.
Ans. 4.99

Qu. Tell me the measured pKd of "COc1cccc2c1C[C@H]1C[C@@H](C(=O)N3CCN(c4cccc(F)c4C#N)CC3)CN(C)[C@@H]1C2" , please.
Ans. 4.78

----------
For UniProtKB P28646, measured pKd is reported for the entries below.
Note on pKd: it is the negative log10 of concentration, concentration in mol/L.

# example entries with known answers
O=[As][As+](=O)[O-] (centres undefined) [ARSENIC TRIOXIDE]: 7.28
COc1cccc2c1C[C@H]1C[C@@H](C(=O)N3CCN(c4ccccn4)CC3)CN(C)[C@@H]1C2: 7.76
CCN(CC)C(=O)c1ccc(N2CCN(C(=O)[C@@H]3C[C@@H]4Cc5c(cccc5OC)C[C@H]4N(C)C3)CC2)cc1: 5.77

Turning now to a further compound:
Qu. Lab note: need pKd for "COc1cccc2c1C[C@H]1C[C@@H](C(=O)N3CCc4c([nH]c5ccccc45)C3)CN(C)[C@@H]1C2" on UniProtKB P28646, anyone have it?
Ans. 7.15
